- Experimental System: human P2X3 receptor (Homo sapiens (Human))
- Test Details: Evaluation of human P2X3 receptor inhibitory activity (Fluo-3 calcium fluorescence, FDSS 3000, ATP stimulation)
- Format: cell-based
- Test Context: C6BU-1 cells stably expressing human P2X3 receptor
IC50 values for the compounds below.
Quick note: give the figure in nM, leave out the unit.

Known IC50 results, listed for orientation:
CCOC(=O)CCn1c(=O)[nH]/c(=N\c2ccc(Oc3cccnc3)cc2)n(Cc2ccc(C)cc2)c1=O ... 4
COC(=O)[C@@H](C)Cn1c(=O)[nH]/c(=N\c2ccc(OC(C)C)c(C)c2)n(Cc2ccccc2)c1=O ... 254
Cc1ccc(Cn2c(=O)n([C@@H](C)[C@@H](C)C(=O)O)c(=O)[nH]/c2=N\c2ccc3oc(C)cc3c2)cc1 ... 41
COC(=O)[C@@H](C)[C@@H](C)n1c(=O)[nH]/c(=N\c2ccc(OC(C)C)c(C)c2)n(Cc2ccc(Cl)cc2)c1=O ... 40
Cc1cc(/N=c2\[nH]c(=O)n(Cc3ccc[nH]c3=O)c(=O)n2Cc2ccc(Cl)cc2)ccc1OC(C)C ... 14

Lab note: measured IC50 of C[C@@H](Oc1ccc(/N=c2\[nH]c(=O)n(CCC(=O)NCC(F)(F)F)c(=O)n2Cc2ccc(Cl)cc2)cc1)C(F)(F)F was 16

Lab note: measured IC50 of Cc1cc(/N=c2\[nH]c(=O)n(C[C@H](C)C(=O)O)c(=O)n2Cc2ccc(F)cc2)ccc1OC(C)C was 127

---

- Experimental System: human P2X3 receptor (Homo sapiens (Human), UniProt P56373)
- Sequence (P56373 whole entry): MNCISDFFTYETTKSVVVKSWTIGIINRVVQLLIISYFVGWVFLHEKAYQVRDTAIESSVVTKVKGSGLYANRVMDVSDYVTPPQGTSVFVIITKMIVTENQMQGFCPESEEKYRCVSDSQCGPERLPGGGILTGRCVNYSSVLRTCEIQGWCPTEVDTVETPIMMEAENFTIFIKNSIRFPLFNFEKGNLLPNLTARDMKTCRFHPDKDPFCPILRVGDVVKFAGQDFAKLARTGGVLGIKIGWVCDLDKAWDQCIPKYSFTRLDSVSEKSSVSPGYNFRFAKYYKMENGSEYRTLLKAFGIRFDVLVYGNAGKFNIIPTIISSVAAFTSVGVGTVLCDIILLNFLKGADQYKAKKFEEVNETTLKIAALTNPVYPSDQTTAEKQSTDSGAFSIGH
- Test Details: Evaluation of human P2X3 receptor inhibitory activity (Fluo-3 calcium fluorescence, FDSS 3000, ATP stimulation)
- Type: cell-based
- Test Context: C6BU-1 cells stably expressing human P2X3 receptor
Assay Readout: IC50 (nM)
Quick note: give the figure in nM, leave out the unit.

Lab note: measured IC50 of CNC(=NC#N)NCCn1c(=O)[nH]/c(=N\c2ccc(OC(C)C)c(F)c2)n(Cc2ccc(Cl)cc2)c1=O was 37

Lab note: measured IC50 of CNC(=O)c1cc(Oc2ccc(/N=c3\[nH]c(=O)n(C)c(=O)n3Cc3ccc(C)cc3)cc2)ccn1 was 9

Lab note: measured IC50 of CCn1c(=O)[nH]/c(=N\c2ccc(Oc3ccc(S(N)(=O)=O)cc3)cc2)n(Cc2ccc(Cl)cc2)c1=O was 6

Lab note: measured IC50 of C[C@@H](C(=O)O)[C@H](C)n1c(=O)[nH]/c(=N\c2ccc(N3CCCCC3)cc2)n(Cc2ccc(Cl)cc2)c1=O was 35

Lab note: measured IC50 of CC(C)Oc1ccc(/N=c2\[nH]c(=O)n(Cc3cccn(C)c3=O)c(=O)n2Cc2ccc(Cl)cc2)cc1F was 5

Lab note: measured IC50 of COC(=O)c1cccc(Cn2c(=O)[nH]/c(=N\c3ccc(OC(C)C)c(C)c3)n(Cc3ccc(Cl)cc3)c2=O)n1 was 9

---

IC50 values for the compounds below.
- Experimental System: human P2X3 receptor (Homo sapiens (Human), UniProt P56373)
- Test Details: Evaluation of human P2X3 receptor inhibitory activity (Fluo-3 calcium fluorescence, FDSS 3000, ATP stimulation)
- Type: cell-based
- Test Context: human P2X3 receptor, Test Example 1
Quick note: give the figure in nM, leave out the unit.

CCCOc1ccc(/N=c2\[nH]c(=O)n(CC(F)(F)C(=O)OCC)c(=O)n2Cc2ccc(C)cc2)cc1 ... 17

Lab note: measured IC50 of CCn1c(=O)[nH]/c(=N\c2ccc(Nc3ccncc3)cc2)n(Cc2ccc(C)cc2)c1=O was 162

Lab note: measured IC50 of CCn1c(=O)[nH]/c(=N\c2ccc(Oc3cccc(C#N)n3)c(F)c2)n(Cc2ccc(Cl)cc2)c1=O was 4

Lab note: measured IC50 of Cc1cncc(Oc2ccc(/N=c3\[nH]c(=O)n(CC(CO)CO)c(=O)n3Cc3ccc(Cl)cc3)cc2)n1 was 6

Lab note: measured IC50 of COC(=O)CCn1c(=O)[nH]/c(=N\c2ccc(Oc3cccc(C#N)n3)cc2)n(Cc2ccc(C)cc2)c1=O was 2

Lab note: measured IC50 of CCOc1ccc(/N=c2\[nH]c(=O)n(CC(F)(F)C(=O)O)c(=O)n2Cc2ccc(C)cc2)cc1Cl was 22

Lab note: measured IC50 of C=Cc1ccc(Cn2c(=O)n(C[C@H](C)C(=O)OC)c(=O)[nH]/c2=N\c2ccc(OC(C)C)c(C)c2)cc1 was 18

Lab note: measured IC50 of CCn1c(=O)[nH]/c(=N\c2ccc(Oc3cc(C(=O)O)ccn3)cc2)n(Cc2ccc(Cl)cc2)c1=O was 8

Lab note: measured IC50 of CCOC(=O)Cn1c(=O)[nH]/c(=N\c2ccc(Oc3ccnnc3)cc2)n(Cc2ccc(Cl)cc2)c1=O was 3

Lab note: measured IC50 of COC(=O)c1cncc(Oc2ccc(/N=c3\[nH]c(=O)n(C)c(=O)n3Cc3ccc(Cl)cc3)cc2)n1 was 19

Lab note: measured IC50 of COCCn1c(=O)[nH]/c(=N\c2ccc(Oc3cncc(C(=O)O)c3)cc2)n(Cc2ccc(Cl)cc2)c1=O was 8

Lab note: measured IC50 of O=c1[nH]/c(=N\c2ccc(Oc3ccn[nH]3)cc2)n(Cc2ccc(Cl)cc2)c(=O)n1CC(CO)CO was 35

Lab note: measured IC50 of O=c1[nH]/c(=N\c2ccc(Oc3ccnc(Cl)c3)cc2)n(Cc2ccc(Cl)cc2)c(=O)n1CC(CO)CO was 4

Lab note: measured IC50 of COc1ccc(Oc2ccc(/N=c3\[nH]c(=O)n(C[C@H](C)C(=O)O)c(=O)n3Cc3ccc(C)cc3)cc2)cn1 was 5

Lab note: measured IC50 of Cc1nsc(Oc2ccc(/N=c3\[nH]c(=O)n(CCO)c(=O)n3Cc3ccc(Cl)cc3)cc2)n1 was 6

Lab note: measured IC50 of CCn1c(=O)[nH]/c(=N\c2ccc(Oc3ccc(NCC(=O)NC)nc3)cc2)n(Cc2ccc(Cl)cc2)c1=O was 5

Lab note: measured IC50 of Cn1c(=O)[nH]/c(=N\c2ccc(Oc3ccc(C#N)cn3)cc2)n(Cc2ccc(Cl)cc2)c1=O was 11

Lab note: measured IC50 of CCn1c(=O)[nH]/c(=N\c2ccc(Oc3cccc(/C=C/C(=O)O)c3)cc2)n(Cc2ccc(C)cc2)c1=O was 3

Lab note: measured IC50 of O=c1[nH]/c(=N\c2ccc(Oc3ncns3)cc2)n(Cc2ccc(Cl)cc2)c(=O)n1CC(CO)CO was 5

---

- Experimental System: human P2X3 receptor (Homo sapiens (Human), UniProt P56373)
- Test Details: Evaluation of human P2X3 receptor inhibitory activity (Fluo-3 calcium fluorescence, FDSS 3000, ATP stimulation)
- Format: cell-based
- Test Context: C6BU-1 cells stably expressing human P2X3 receptor, Fluo-3 fluorescence, FDSS 3000
Assay Readout: IC50 (nM)
Quick note: give the figure in nM, leave out the unit.

COC(=O)[C@H](C)Cn1c(=O)[nH]/c(=N\c2ccc(OCC3CC3)cc2)n(Cc2ccc(Cl)cc2)c1=O ... 5

Lab note: measured IC50 of CC(C)=Cc1ccc(/N=c2\[nH]c(=O)n(C[C@H](C)C(=O)O)c(=O)n2Cc2ccc(Cl)cc2)cc1C was 20

Lab note: measured IC50 of Cc1cc(/N=c2\[nH]c(=O)n(C3CCN(CC(=O)O)CC3)c(=O)n2Cc2ccc(Cl)cc2)ccc1OC(C)C was 285

Lab note: measured IC50 of COC(=O)[C@@H](C)Cn1c(=O)nc(Cc2ccccc2C)n(Cc2ccc(Cl)cc2)c1=O was 357

---

- Experimental System: human P2X3 receptor (Homo sapiens (Human), UniProt P56373)
- Test Details: Evaluation of human P2X3 receptor inhibitory activity (Fluo-3 calcium fluorescence, FDSS 3000, ATP stimulation);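 also: stimulus was 50 nM ATP with fluorescence followed for 3 min, and the response per well was peak post-ATP fluorescence divided by the reading at measurement start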
- Format: cell-based
- Test Context: human P2X3 receptor, Test Example 1
pIC50 values for the compounds below.
FYI, pIC50 means -log10 of a concentration in mol per litre.

Known pIC50 results, listed for orientation:
O=c1[nH]/c(=N\c2ccc(Oc3ccn[nH]3)cc2)n(Cc2ccc(Cl)cc2)c(=O)n1C[C@H](O)CO ... 7.19
Cn1cc(Oc2ccc(/N=c3\[nH]c(=O)n(CCC(=O)O)c(=O)n3Cc3ccc(Cl)cc3)cc2)ccc1=O ... 7.89
O=c1[nH]/c(=N\c2ccc(Oc3ccon3)cc2)n(Cc2ccc(Cl)cc2)c(=O)n1CCOC1CCCCO1 (stereo not shown) ... 9.00
O=C(O)CCn1c(=O)[nH]/c(=N\c2ccc(Oc3ncccn3)cc2)n(Cc2ccc(Cl)cc2)c1=O ... 7.72
CCc1oc2ccc(/N=c3\[nH]c(=O)n(CC4(C(=O)O)CC4)c(=O)n3Cc3ccc(Cl)cc3)cc2c1C ... 8.05
CCOC(=O)Cn1c(=O)[nH]/c(=N\c2ccc(Oc3nc(C)ns3)cc2)n(Cc2ccc(Cl)cc2)c1=O ... 8.30

Proceeding to the next compound to report its pIC50.
Lab note: measured pIC50 of NC(=O)Cn1c(=O)[nH]/c(=N\c2ccc(Oc3cnsn3)cc2)n(Cc2ccc(Cl)cc2)c1=O was 7.89
